Tested on: TXK;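 also: kd values determined as follow-up on hits from a single-replicate KINOMEscan panel screen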
pKd: −log10 of the molar value.
quantityMeasured: pKd

Query :: Quick check: pKd on TXK, item COc1cccc(CNC(=O)NC2CCN(c3ccnc(Nc4ccc(F)cc4)n3)C2)c1 (stereo not shown) ?
Result :: < 5.00

----------
Tested on: BTK
runConditions: concentration: 1 μM, replicates: in singlicate; n = 1
Reported %Inh values for a set of compounds
Reply with just the number (in %).

{"compound": "COc1ccc2cc(-c3nc(-c4ccccc4C(C)C)[nH]c3-c3ccncc3)ccc2c1 [SB-660566]", "testSystem": "BTK", "scaleUnit": "%", "observed": 0}
{"compound": "CS(=O)(=O)CCNCc1nc(-c2ccc3ncnc(Nc4ccc(OCc5ccccc5)c(Cl)c4)c3c2)cs1.Cl [GW582764]", "testSystem": "BTK", "scaleUnit": "%", "observed": 35}
{"compound": "COC(=O)C(NC(=O)NC1CCN(c2ccnc(Nc3ccc(F)cc3)n2)C1)c1ccccc1 (centres unmarked) [GSK1379712]", "testSystem": "BTK", "scaleUnit": "%", "observed": 18}

Query :: May I ask what %Inh has been recorded for CCn1c(-c2c(N)noc2C)nc2cnccc21 [SB-737856] ?
Result :: 0

Query :: May I ask what %Inh has been recorded for Nc1cccc(-c2ccc3c(N)n[nH]c3c2)n1 [GSK2192730] ?
Result :: 0

----------
Reported %Inh values for a set of compounds
Test system: NEK7
runConditions: concentration: 1 μM, replicates: in singlicate; n = 1

Previously resolved entries follow.
{"compound": "Cc1c(Cn2c3ccccc3n3c(=O)cc(N4CCOCC4)nc23)cccc1C(F)(F)F [GSK2306394]", "testSystem": "NEK7", "observed": "17%"}
{"compound": "NS(=O)(=O)c1cccc(N/C=C2\\C(=O)Nc3ccc(S(=O)(=O)Cc4c(Cl)cccc4Cl)cc32)c1 [GSK398099]", "testSystem": "NEK7", "observed": "0%"}
{"compound": "Cc1ccccc1Cn1ccn2c(=O)cc(N3CCOCC3)nc12 [GSK2269905]", "testSystem": "NEK7", "observed": "0%"}
{"compound": "CNCc1ccc2nc(NC(=O)c3ccc(C(C)(C)C)cc3)cn2c1", "testSystem": "NEK7", "observed": "10%"}

Query :: May I ask what %Inh has been recorded for Cn1cncc1C(=O)NC1CCN(c2ccnc(Nc3ccc(F)cc3)n2)C1 (stereo not drawn) [GSK1379717] ?
Result :: 0%

Query :: May I ask what %Inh has been recorded for COc1ccc(-c2coc3ccc(-c4nnc(C)o4)cc23)cc1 ?
Result :: 0%

Query :: May I ask what %Inh has been recorded for Cc1cnc(N)c(/C=C/c2cncc(C(=O)NCCc3ccc(Cl)cc3Cl)c2)c1.Cl [GSK190937] ?
Result :: 0%

Query :: May I ask what %Inh has been recorded for COc1cccc(NC(=O)Nc2ccc(C)c(-c3ccc(C(=O)Nc4ccncc4)cc3)c2)c1 [GSK1398474] ?
Result :: 0%

Query :: May I ask what %Inh has been recorded for O=C(Nc1n[nH]c2nc(-c3cccs3)c(Br)cc12)C1CCCC1 [SB-743341] ?
Result :: 14%

----------
Reported %Inh values for a set of molecules
Test system: PFTK1
Construct: gene CDK14
runConditions: concentration: 1 μM, replicates: in singlicate; n = 1
Reply with just the number (in %).

Previously resolved entries follow.
{"molecule": "CNC(=O)c1ccc(C)c(-n2c(C)cc(OCc3ccc(F)cc3F)c(Br)c2=O)c1", "quantityMeasured": "%Inh", "observed": 8}
{"molecule": "O=c1cc(N2CCOCC2)nc2n(Cc3ccccc3F)ccn12 [GSK2297428]", "quantityMeasured": "%Inh", "observed": 23}
{"molecule": "Cc1c(Cn2c3ccccc3n3c(=O)cc(N4CCOCC4)nc23)cccc1C(F)(F)F [GSK2306394]", "quantityMeasured": "%Inh", "observed": 21}
{"molecule": "COc1ccc(Nc2nccc(N3CCC(NC(=O)c4cc5ccccc5s4)C3)n2)cc1 (centres unmarked) [GSK1379738]", "quantityMeasured": "%Inh", "observed": 4}

Note: attention shifts to another entry.
Query :: May I ask what %Inh has been recorded for COc1ccc2cc(-c3nc(-c4ccccc4C(C)C)[nH]c3-c3ccncc3)ccc2c1 [SB-660566] ?
Result :: 17

----------
Tested on: PFTK1
Construct: gene CDK14
runConditions: concentration: 1 μM, replicates: in singlicate; n = 1
quantityMeasured: %Inh (%)
Reply with just the number (in %).

Previously resolved entries follow.
{"compound": "O=C(Nc1n[nH]c2cc(-c3ccsc3)ccc12)C1CC1 [SB-732932]", "scaleUnit": "%", "%Inh": 5}
{"compound": "O=C1NC(=O)C(c2ccc(Cl)cc2)=C1Nc1ccc(O)cc1 [SB-340867]", "scaleUnit": "%", "%Inh": 0}
{"compound": "Cn1cncc1C(=O)NC1CCN(c2ccnc(Nc3ccc(F)cc3)n2)C1 (stereo not drawn) [GSK1379717]", "scaleUnit": "%", "%Inh": 11}
{"compound": "Cc1ccccc1-c1cc(-c2c[nH]nc2-c2ccccn2)ccn1 [GW680061]", "scaleUnit": "%", "%Inh": 0}
{"compound": "CC(C)c1cc(-c2ccc3c(N)n[nH]c3c2)nc(N)n1 [GSK2250882]", "scaleUnit": "%", "%Inh": 4}

Query :: May I ask what %Inh has been recorded for CC(=O)c1cccc(NC(=O)NC2CCN(c3ccnc(Nc4ccc(F)cc4)n3)C2)c1 (stereo not drawn) [GSK1379710] ?
Result :: 14

Query :: May I ask what %Inh has been recorded for COC(=O)c1cccc(NC(=O)NC2CCN(c3ccnc(Nc4ccc(F)cc4)n3)C2)c1 (stereo not drawn) [GSK1379725] ?
Result :: 16

Query :: May I ask what %Inh has been recorded for Cn1cncc1-c1cc2c(Nc3ccc(OCc4ccccc4)cc3)ncnc2cn1 [GW281179] ?
Result :: 20

Query :: May I ask what %Inh has been recorded for CC(=O)c1c(C)c2cnc(Nc3ccn(C)n3)nc2n(C2CCCC2)c1=O ?
Result :: 0

----------
Reported %Inh values for a set of compounds
System: QSK
runConditions: concentration: 1 μM, replicates: in singlicate; n = 1
Reply with just the number (in %).

{"compound": "CNc1nc(-c2ccc3c(N)n[nH]c3c2)cc(N2C[C@@H](C(=O)Nc3ccccc3)CC[C@H]2C)n1", "scaleUnit": "%", "observed": 18}

Query :: May I ask what %Inh has been recorded for COc1ccc(Nc2nccc(N3CCC(NC(=O)C(C)c4ccc(Cl)cc4)C3)n2)cc1 (stereo not drawn) ?
Result :: 0

Query :: May I ask what %Inh has been recorded for COc1cccc(C2=C(Nc3cc(Cl)c(O)c(Cl)c3)C(=O)NC2=O)c1 ?
Result :: 5

Query :: May I ask what %Inh has been recorded for O=C(Nc1n[nH]c2nc(-c3ccco3)c(Br)cc12)C1CCN(Cc2ccccc2)C1.O=C(O)[C@H](O)[C@@H](O)C(=O)O (stereo not drawn) ?
Result :: 26

----------
System: MAPKAPK5
runConditions: concentration: 1 μM, replicates: in singlicate; n = 1
Reported %Inh values for a set of compounds
Reply with just the number (in %).

{"compound": "Cc1c(Cn2c(C)c(C)n3c(=O)cc(N4CCOCC4)nc23)cccc1C(F)(F)F", "observed": 0}
{"compound": "Cn1cnc2c(N)ncnc21", "observed": 0}
{"compound": "Cl.Cl.Cl.N#Cc1ccc(CCNc2nccc(-c3cccc(CN4CCNCC4)c3)n2)cc1", "observed": 0}
{"compound": "Cn1cncc1C(=O)NC1CCN(c2ccnc(Nc3ccc(F)cc3)n2)C1 (stereo not shown)", "observed": 0}
{"compound": "Nc1cccc(-c2ccc3c(N)n[nH]c3c2)n1", "observed": 0}
{"compound": "Cc1ccc(NC(=O)Nc2ccc(Cl)c(C(F)(F)F)c2)cc1-c1ccc(C(=O)Nc2ccncc2)cc1", "observed": 0}
{"compound": "O=C(Nc1n[nH]c2nc(-c3cccs3)c(Br)cc12)C1CC1", "observed": 10}
{"compound": "CS(=O)(=O)CCNCc1nc(-c2ccc3ncnc(Nc4ccc(OCc5ccccc5)c(Cl)c4)c3c2)cs1.Cl", "observed": 0}
{"compound": "Cc1nccc(-c2c(-c3ccc(F)cc3)ncn2CCCN2CCOCC2)n1.Cl", "observed": 4}
{"compound": "COc1ccc(CSc2nnc(-c3ccc4c(c3)CCO4)o2)cc1", "observed": 0}

Query :: May I ask what %Inh has been recorded for CC(=O)c1c(C)c2cnc(Nc3ccn(C)n3)nc2n(C2CCCC2)c1=O ?
Result :: 0

Query :: May I ask what %Inh has been recorded for COc1cc2ncnc(Nc3cccc(Br)c3)c2cc1OC.Cl ?
Result :: 0

Query :: May I ask what %Inh has been recorded for Nc1ncnc2occ(-c3ccc4c(c3)CCN4C(=O)Cc3cc(F)ccc3F)c12 ?
Result :: 0

Query :: May I ask what %Inh has been recorded for COc1cccc(NC(=O)Nc2ccc(C)c(-c3ccc(C(=O)Nc4ccncc4)cc3)c2)c1 ?
Result :: 0

Query :: May I ask what %Inh has been recorded for O=C(Nc1n[nH]c2nc(-c3cccs3)c(Br)cc12)C1CCCC1 ?
Result :: 17

Query :: May I ask what %Inh has been recorded for FC(F)(F)c1ccccc1-c1cc(-c2c[nH]nc2-c2ccccn2)ccn1 ?
Result :: 8

Query :: May I ask what %Inh has been recorded for COc1cccc(CNC(=O)NC2CCN(c3ccnc(Nc4ccc(F)cc4)n3)C2)c1 (stereo not shown) ?
Result :: 0

Query :: May I ask what %Inh has been recorded for CC(C)c1cc(-c2ccc3c(N)n[nH]c3c2)nc(N)n1 ?
Result :: 0

Query :: May I ask what %Inh has been recorded for Cc1ccccc1-c1cc(-c2c[nH]nc2-c2ccccn2)ccn1 ?
Result :: 0

Just for reference, paper PMC5540273 is where these values come from.
